- experimentSummary: NCI Yeast Anticancer Drug Screen. Data for the mlh1 rad18 strain (AID 175)
- runParameters: S. cerevisiae mlh1 rad18 strain growth inhibition; at 50.0 µM (retest, dose inferred, filed as 5.0); hits give high values
This is part of a sample that, as a whole, favours compounds with a hit. Of some 79,000 tested, about 15% had one in any assay.
Is growth inhibition at least 90%? Then Satisfied. If not, Not satisfied.

Previously resolved entries follow.
O=CC(O)C(O)C(O)C(O)C(=O)NCCCCCCCCCCCCNC(=O)C(O)C(O)C(O)C(O)C=O (configuration not stated) : Not satisfied
O=C(C1=NNC(c2ccccc2)C1C(=O)c1ccccc1)c1ccccc1 (configuration not stated) : Not satisfied
CCCCCCCCCCCC(=O)NC(CCC(=O)O)C(=O)O (configuration not stated) : Not satisfied
CC1(C)/C=C/C2=Nc3cc(Br)c(Br)c(Br)c3C23CC(=O)N3/C=C(\Cl)c2nc(Br)[nH]c21 (configuration not stated) : Satisfied

Here's the next entry for you.
Request: Please check the record `O=[N+]([O-])c1ccc(/C=N/NC2=CS(=O)(=O)C=C2)cc1` and state if its growth inhibition is at or above 90%.
Response: Not satisfied

----------
- experimentSummary: NCI Yeast Anticancer Drug Screen. Data for the rad50 strain (AID 155);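 note: 0% = growth of vehicle-only cultures of the same strain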
- runParameters: S. cerevisiae rad50 strain growth inhibition; at 50.0 µM
This is part of a sample that, as a whole, favours compounds with a hit. Of some 79,000 tested, about 15% had one in any assay. Active and inactive are the calls of the source. Rule as the data show it: active = growth inhibition above about 70%; inactive = the rest.
Field 'call' accepts 1 (yes) (active), 0 (no) (inactive)

Cc1nc(C)c(C(=O)NNC(=O)C[N+](C)(C)C)cc1C(=O)NNC(=O)C[N+](C)(C)C : 0 (no)

Request: Call for entry `O=C1/C(=C(/Br)I)c2ccccc2-c2ccccc21` :
Response: 0 (no)

Request: Call for entry `CCCCN(c1ccccc1)c1ncnc2c1ncn2C` :
Response: 1 (yes)

Request: Call for entry `Cc1nc2c(Cl)nc(Cl)nc2s1` :
Response: 1 (yes)

Request: Call for entry `CCOC(=O)C(C=O)(C=O)c1ccccc1` :
Response: 1 (yes)

----------
- experimentSummary: NCI Yeast Anticancer Drug Screen. Data for the mec2-1 strain (AID 157)
- runParameters: S. cerevisiae mec2-1 strain, at 50.0 µM (retest, dose inferred, filed as 5.0), hits give high values
Compounds without any hit were thinned out: in the full panel of roughly 79,000, 15% have a hit. Activity calls are given as the source filed them. No stated cut-off is given here; in the data, active means growth inhibition above about 70%; inactive means the rest.
measurementKind: growth inhibition

Worked cases, growth inhibition given:
C/C(=N/NC(=O)c1ccccc1S(N)(=O)=O)C(CN1CCCCC1)C(C1=C(O)C2C=CC=CC2OC1=O)c1ccccc1 (stereo not given) : 25% (inactive)
CCCCCCCCCCCCCCCCCC(=O)Nc1ccn(C2OC(CO)C(O)C2O)c(=O)n1 (stereo not given) : 15% (inactive)
COc1c([N+](=O)[O-])cc(-c2ccccc2)cc1[N+](=O)[O-] : 98% (active)

Request: # return recorded growth inhibition for input `O=[N+]([O-])c1cc(NC(=S)SCc2ccccc2)ccc1Cl`
Response: 99% (active)

Request: # return recorded growth inhibition for input `COc1ccc(C(=O)Nc2ccccc2OC)cc1`
Response: -29% (inactive)

----------
The following compounds are listed with their measured growth inhibition values.
- experimentSummary: NCI Yeast Anticancer Drug Screen. Data for the mlh1 rad18 strain (AID 175)
- runParameters: S. cerevisiae mlh1 rad18 strain growth inhibition; at 5.0 µM (retest, dose inferred, filed as 0.5); hits give high values
Compounds without any hit were thinned out: in the full panel of roughly 79,000, 15% have a hit.
Give the number; % is assumed, so skip it.

Worked cases, growth inhibition given:
Cc1ccc(N2CC3CC4(C)C=CC3(C2)O4)cc1 (stereo not drawn) : 30
Cc1cc2c(C(C)C)c(O)c(O)c(C=Nc3ccc(C(=O)O)cc3)c2c(O)c1-c1c(C)cc2c(C(C)C)c(O)c(O)c(C=Nc3ccc(C(=O)O)cc3)c2c1O : 40
CCC(=O)C(CCN(CC)CC)(CCN(CC)CC)c1ccccc1 : -2

Request: # return recorded growth inhibition for input `COc1ccc2nc3cccc([N+](=O)[O-])c3c(NCCO)c2c1`
Response: 77

Request: # return recorded growth inhibition for input `CC(=O)Nc1ccc(N=Cc2cc(Cl)cc(Cl)c2O)cc1`
Response: 80

Request: # return recorded growth inhibition for input CCN(CC)CCC(=O)NC1c2ccc(Cl)cc2Oc2c(C)cccc21 (stereo not drawn)
Response: 8
